Listed here: items and their measured growth.
System: NCI-H322M lung
Assay: NCI-60 one-dose screen, 48 h (100 = growth as untreated, 0 = no growth, -100 = all killed)
Details: 10 µM
This is part of a sample that, as a whole, favours compounds with a hit. Of some 83,000 tested, about 20% had one in any assay.
Numeric only. Scale: %

Entry N=c1nc(N)ncn1-c1ccccc1 : reported growth = ?
108

Param item: N=C(N)c1ccc(-c2ccc(-c3cccs3)s2)cc1
2.2

Param item: Cc1cn(C2CCCCO2)c(=O)nc1NO (stereo unspecified)
110

Param item: ClC(Cl)(Cl)c1nc2nccnc2[nH]1
90

Param item: Cc1ccc(S(=O)(=O)OCCN(CCOS(=O)(=O)c2ccc(C)cc2)c2c[nH]c(=O)[nH]c2=O)cc1
105

Param item: COc1cc([C@@H]2c3cc4c(cc3C(Br)[C@H]3COC(=O)[C@H]23)OCO4)cc(OC)c1OC (stereo partly specified)
42.2
